FYI, the data here is from PubChem BioAssay (NCI).

System: CAKI-1 renal
Assay: NCI tumour cell line growth inhibition, 48 h
The following molecules are listed with their measured TGI values.

Example results:
molecule=Cc1[nH]n(-c2nc3c(c(=O)[nH]2)CCCC3)c(=O)c1CCO reported_property=TGI reading="> 100 µM"
molecule=COC(=O)[C@@H]1[C@@H]2NC(=S)N[C@@]1(C)Oc1ccccc12 reported_property=TGI reading="> 100 µM"
molecule=COC(=O)[C@@H]1CO[C@H](C(C)(C)C)N1C(=O)N1C=CC(=O)C[C@H]1C reported_property=TGI reading="> 100 µM"
molecule="N#CC1CC(c2ccccc2)Nc2cc(Cl)ccc2N1 (stereo not given)" reported_property=TGI reading="> 100 µM"
molecule="c1ccc(COC[C@H]2O[C@@H](c3ccccc3)C[C@@H](OCc3ccccc3)C2OCc2ccccc2)cc1 (stereo not given in full)" reported_property=TGI reading="> 10 µM"
molecule=CC(C)[C@@H]1CC[C@]2(CO2)[C@@H]2C(=O)OCC(C(=O)O)=C[C@H]21 reported_property=TGI reading="> 100 µM"

Request: Give measured TGI for CCOC(=O)c1c2c(n(-c3ccc(C)cc3)c1C)-c1ccccc1C(=O)C2(C(=O)OCC)C(=O)OCC (CAKI-1 renal).
Result: > 100 µM

Request: Report the value of TGI obtained on CAKI-1 renal for Cc1c(C)c2c(c(N)c1C#N)C(=O)N(Cc1ccc(S(N)(=O)=O)cc1)C2=O .
Result: > 100 µM

Request: Supply TGI measured with CAKI-1 renal for COc1ccc(CCCCNCc2cccc(CNCCCCc3ccc(OC)cc3)c2)cc1 .
Result: 3.63 µM

Request: Report value: TGI, system: CAKI-1 renal, molecule: CCCC(=O)CC(C)C(=O)C(=O)NC12CC3CC(CC(C3)C1)C2 (stereo not given)
Result: > 100 µM
